The following molecules are listed with their measured CC50 at 24 h values.
protocol_details: in vitro
particulars: rat, gh3-tre-luc cells, AC50 (uM) modified / 1000
Counter-ions that a name gives are not always drawn.

>  <molecule>
Cc1cc(C(C)(C)C)c(O)c(C)c1CC1=NCCN1

>  <measured_metric>
CC50 at 24 h

>  <recorded_value>
> 50 µM

$$$$
>  <molecule>
COC(=O)CC(=O)OC [Dimethyl malonate]

>  <measured_metric>
CC50 at 24 h

>  <recorded_value>
> 100 µM

$$$$
>  <molecule>
Oc1c(I)cc(I)c2cccnc12

>  <measured_metric>
CC50 at 24 h

>  <recorded_value>
> 50 µM

$$$$
>  <molecule>
Cc1ccc(C(=O)Nc2ccc(S(=O)(=O)O)c3cc(S(=O)(=O)O)cc(S(=O)(=O)O)c23)cc1NC(=O)c1cccc(NC(=O)Nc2cccc(C(=O)Nc3cc(C(=O)Nc4ccc(S(=O)(=O)O)c5cc(S(=O)(=O)O)cc(S(=O)(=O)O)c45)ccc3C)c2)c1

>  <measured_metric>
CC50 at 24 h

>  <recorded_value>
> 50 µM

$$$$
>  <molecule>
CC1=C2C[C@H]3[C@@H](CC=C4C[C@@H](O)CC[C@@]43C)[C@@H]2CC[C@]12O[C@@H]1C[C@H](C)CN[C@H]1[C@H]2C

>  <measured_metric>
CC50 at 24 h

>  <recorded_value>
5.73 µM

$$$$

molecule N=c1c[n+](N2CCOCC2)[n-]o1 [3-Morpholinosydnonimine hydrochloride] , CC50 at 24 h observed: > 50 µM

Kindly note the recorded CC50 at 24 h for CC(=O)C(=O)CC(C)C , which is > 90 µM

Quick note, CC50 at 24 h for FC(F)(F)COCC(F)(F)F landed at > 50 µM

Quick note, CC50 at 24 h for CC1=C(C(=O)Nc2ccccc2)S(=O)(=O)CCO1 landed at 40.7 µM

response.value for COc1ccc(OC)cc1 [Hydroquinone dimethyl ether] (field: CC50 at 24 h) = > 90 µM

# CC50 at 24 h (molecule: c1nc[nH]n1 [1,2,4-Triazole, sodium salt] ) is > 90 µM

Just so you know, measured CC50 at 24 h for Clc1ccc(C2(Cn3cncn3)CC(Br)CO2)c(Cl)c1 (stereo not shown) came out at > 90 µM

Data point: CC(C)COC(=O)COc1ccc(Cl)cc1Cl ; CC50 at 24 h = > 90 µM

For Nc1ccc(C=Cc2ccc(N)cc2S(=O)(=O)O)c(S(=O)(=O)O)c1 the molecule record lists CC50 at 24 h as > 50 µM

Kindly note the recorded CC50 at 24 h for CC(=O)c1ccccc1O [2-Hydroxyacetophenone] , which is > 90 µM

Just so you know, measured CC50 at 24 h for CC1CCc2cc(F)cc3c(=O)c(C(=O)O)cn1c23 (stereo not shown) came out at > 50 µM

molecule CN(C)CCC#N , CC50 at 24 h observed: > 90 µM

For reference, reported CC50 at 24 h for CCCCOC(=O)c1ccc(N)cc1 [Butyl 4-aminobenzoate] stands at > 50 µM

GET /value?item= C[C@@H](O)C[C@@H](C)O &field=CC50 at 24 h returns > 90 µM

---

Tested on: GH3-TRE-Luc cell line
particulars: read-out: AC50 (uM) modified / 1000; Tox21_110001=Tox21_112726; viability, 1 nM T3 present, 24 h
measured_metric: CC50 (µM)
Output spec: scalar in µM, unitless text.

// CC1(C)[C@@H](O)CC[C@]2(C)[C@H]3C(=O)C=C4[C@@H]5C[C@@](C)(C(=O)O)CC[C@]5(C)CC[C@@]4(C)[C@]3(C)CC[C@@H]12 [Glycyrrhetinic acid] : CC50 value = 19.8

---

System: GH3-TRE-Luc cell line
particulars: read-out: AC50 (uM) modified / 1000; Tox21_110001=Tox21_110819; viability, 1 nM T3 present, 24 h
measured_metric: CC50 (µM)
Numbers only; they are read as µM.

Item: C=C(C)[C@H]1Cc2c(ccc3c2O[C@@H]2COc4cc(OC)c(OC)cc4[C@@H]2C3=O)O1 | System: GH3-TRE-Luc cell line | CC50: 3.27

---

Test system: GH3-TRE-Luc cell line
particulars: read-out: AC50 (uM) modified / 1000; Tox21_110001=Tox21_201981; viability, 1 nM T3 present, 24 h
measured_metric: CC50 (µM)
The reply should contain only the number, in µM.

Reading of CC50 for CC(C)(c1cc(Br)c(O)c(Br)c1)c1cc(Br)c(O)c(Br)c1 with GH3-TRE-Luc cell line: 43.3

---

protocol_details: in vitro
particulars: rat, gh3-tre-luc cells, AC50 (uM) modified / 1000, Tox21_110001=Tox21_111614; viability, 1 nM T3 present, 24 h
measured_metric: CC50 at 24 h

// field: CC50 at 24 h; key: OC(O)C(Cl)(Cl)Cl [Chloral hydrate] ; value = > 50 µM

---

System: GH3-TRE-Luc cell line
particulars: read-out: AC50 (uM) modified / 1000; Tox21_110001=Tox21_300918; viability, 1 nM T3 present, 24 h
measured_metric: CC50 (µM)
Dear colleague, please return just the value in µM, with no unit written.

// CC50 value for CCCN(CCC)c1c([N+](=O)[O-])cc(C(F)(F)F)cc1[N+](=O)[O-] : 62.5

---

Tested on: GH3-TRE-Luc cell line
particulars: read-out: AC50 (uM) modified / 1000; Tox21_110001=Tox21_201687; viability, 1 nM T3 present, 24 h
measured_metric: CC50 (µM)
Field format: number, assumed µM, no unit text.

GET /value?item= N#Cc1c(Cl)c(Cl)c(Cl)c(C#N)c1Cl &field=CC50 returns 0.523

---

protocol_details: in vitro
particulars: rat, gh3-tre-luc cells, AC50 (uM) modified / 1000, Tox21_110001=Tox21_200172; viability, 1 nM T3 present, 24 h
measured_metric: CC50 at 24 h

The molecule listed as C=CCc1cc(OC)c2c(c1)OCO2 [Myristicin] has a reported CC50 at 24 h of > 100 µM

---

protocol_details: in vitro
particulars: rat, gh3-tre-luc cells, AC50 (uM) modified / 1000
Structures can show the parent of a compound that is named as a salt.
measured_metric: CC50 at 24 h

Look over these answered cases.
>  <compound>
CC(C)COC(=O)CC(C(=O)OCC(C)C)S(=O)(=O)O (stereo not shown) [Sodium 1,4-diisobutyl sulfosuccinate]

>  <CC50 at 24 h>
> 90 µM

$$$$
>  <compound>
NC[C@H]1O[C@H](O[C@H]2[C@H](O)[C@@H](O[C@H]3O[C@H](CO)[C@@H](O)[C@H](N)[C@H]3O)[C@H](N)C[C@@H]2N)[C@H](N)C[C@@H]1O

>  <CC50 at 24 h>
> 20 µM

$$$$
>  <compound>
Nc1ccc(Oc2ccc(N)c(N)c2)cc1

>  <CC50 at 24 h>
75.2 µM

$$$$
>  <compound>
O=C(O)/C=C\C(=O)Nc1ccc(S(=O)(=O)Nc2nccs2)cc1

>  <CC50 at 24 h>
> 50 µM

$$$$
>  <compound>
Cc1ccc(OC(=O)CC(C)C)cc1 [4-Methylphenyl 3-methylbutanoate]

>  <CC50 at 24 h>
> 90 µM

$$$$

Please fill in: CC50 at 24 h reported for CCOc1ccc(NC(C)=O)cc1 = > 50 µM

// O=C(OCCOCCOC(=O)c1ccccc1)c1ccccc1 [Diethylene glycol dibenzoate] : CC50 at 24 h value = > 90 µM

# compound CO/N=C(\C(=O)N[C@@H]1C(=O)N2C(C(=O)OCOC(=O)C(C)(C)C)=C(C)CS[C@H]12)c1csc(N)n1 [Cefetamet pivoxil HCl] ; its CC50 at 24 h = > 50 µM

The compound C=CCOC(=O)C(=C)C [Allyl methacrylate] showed CC50 at 24 h equal to > 100 µM

For record C=COC(C)=O [Vinyl acetate] the listed CC50 at 24 h is > 90 µM

---

Recorded TRb-bla hitc values for a group of molecules are listed next.
tested_target: human TRβ ligand-binding domain (Homo sapiens)
Sequence (P10828 217-461 limits assumed): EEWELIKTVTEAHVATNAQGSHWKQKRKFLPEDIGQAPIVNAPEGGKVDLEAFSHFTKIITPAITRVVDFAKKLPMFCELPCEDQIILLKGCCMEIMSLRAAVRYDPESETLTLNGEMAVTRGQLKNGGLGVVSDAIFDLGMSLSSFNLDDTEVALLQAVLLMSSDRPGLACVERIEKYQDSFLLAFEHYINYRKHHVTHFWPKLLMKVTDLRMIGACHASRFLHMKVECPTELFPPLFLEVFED
protocol_details: TRb-bla agonist mammalian one-hybrid beta-lactamase assay (TOX21_TRB_BLA_Agonist_Followup_ratio, aeid 2236)
Format: cell-based
Design: host or cells: GeneBLAzer UAS-bla HEK 293T
particulars: hit call from tcpl; agonist
Could you respond with only the numeric value?

>  <molecule>
O=C(O)Cc1cc(I)c(Oc2cc(I)c(O)c(I)c2)c(I)c1

>  <tested_target>
human TRβ ligand-binding domain (Homo sapiens)

>  <TRb-bla hitc>
1

$$$$
>  <molecule>
C=C(NC(=O)C(=C)NC(=O)c1csc(C2=N[C@@H]3c4csc(n4)[C@H]4NC(=O)c5csc(n5)[C@H]([C@](C)(O)[C@@H](C)O)NC(=O)[C@H]5CSC(=N5)/C(=C/C)NC(=O)[C@H]([C@@H](C)O)NC(=O)c5csc(n5)[C@]3(CC2)NC(=O)[C@H](C)NC(=O)C(=C)NC(=O)[C@H](C)NC(=O)[C@H]([C@@H](C)CC)N[C@@H]2C=Cc3c([C@H](C)O)cc(nc3[C@H]2O)C(=O)O[C@@H]4C)n1)C(N)=O

>  <tested_target>
human TRβ ligand-binding domain (Homo sapiens)

>  <TRb-bla hitc>
0

$$$$
>  <molecule>
CC1=C(/C=C/C(C)=C\C=C\C(C)=C\C(=O)O)C(C)(C)CCC1 [9-cis Retinoic acid, reference compound]

>  <tested_target>
human TRβ ligand-binding domain (Homo sapiens)

>  <TRb-bla hitc>
0

$$$$
>  <molecule>
CN(C)c1ccc(N=O)cc1

>  <tested_target>
human TRβ ligand-binding domain (Homo sapiens)

>  <TRb-bla hitc>
0

$$$$
>  <molecule>
O=C(O)CCNC(=O)c1ccccc1 [Betamipron, reference compound]

>  <tested_target>
human TRβ ligand-binding domain (Homo sapiens)

>  <TRb-bla hitc>
1

$$$$
>  <molecule>
N[C@@H](Cc1ccc(Oc2cc(I)c(O)c(I)c2)c(I)c1)C(=O)O

>  <tested_target>
human TRβ ligand-binding domain (Homo sapiens)

>  <TRb-bla hitc>
1

$$$$

Recorded TRb-bla hitc (molecule C=C(c1ccc(C(=O)O)cc1)c1cc2c(cc1C)C(C)(C)CCC2(C)C [Bexarotene, reference compound] ): 0

Per the record, CC1=C(/C=C/C(C)=C/C=C/C(C)=C\C(=O)O)C(C)(C)CCC1 [13-cis Retinoic acid, reference compound] has TRb-bla hitc of 0

Notebook: O=C(Cl)OCCOCCOC(=O)Cl [Diethlylene glycol bis chloroformate] , TRb-bla hitc read as 0
